Values were extracted from patent US20230165873A1.

// values below are IC50; system is CDK6 cyclinD1 (Homo sapiens)

CN(C)C(=O)c1cc2cnc(N(c3cncc(-c4csc5c(=O)cc(N6CCOCC6)oc45)c3)c3ncc4cc(C(=O)N(C)C)n(C5CCCC5)c4n3)nc2n1C1CCCC1    500 to 1000 nM
CN(C)C(=O)c1cc2cnc(Nc3ccc(-c4csc5c(=O)cc(N6CCOCC6)oc45)cc3C(=O)O)nc2n1C1CCCC1    > 45000 nM
Cc1nn(-c2ccnc(Nc3ccc(-c4csc5c(=O)cc(N6CCOCC6)oc45)cc3)n2)cc1CN1CCOCC1    > 45000 nM
CC(=O)c1c(C)c2cnc(Nc3ccc(-c4csc5c(=O)cc(N6CCOCC6)oc45)cc3)nc2n(C2CCCC2)c1=O    < 500 nM
CN(C)C(=O)c1cc2cnc(Nc3ccc(-c4csc5c(=O)cc(N6CCNCC6)oc45)cc3)nc2n1C1CCCC1    < 500 nM

Continue with the next molecule.
Any idea what IC50 was measured for "CN(C)C(=O)c1cc2cnc(Nc3cc(C(=O)O)cc(-c4csc5c(=O)cc(N6CCOCC6)oc45)c3)nc2n1C1CCCC1" ?
> 45000 nM

---

TEST_TARGET: BRD4-1 (Homo sapiens)
Construct: BRD4-1
RUN_DESCRIPTION: BRD4-1 in vitro inhibition
Format: binding
pIC50: −log10 of the molar value.
I'd appreciate it if you could supply pIC50 values for the items below.

C=CS(=O)(=O)N1CCCc2ccc(-c3csc4c(=O)cc(N5CCOCC5)oc34)cc21 [Compound 44]    > 6.30
C=CS(=O)(=O)N(c1cc(-c2csc3c(=O)cc(N4CCOCC4)oc23)ccc1OC)S(=O)(=O)C=C [Compound 49]    > 6.30

Please look at the items below and tell me pIC50 for each one, in order.
1. C=CC(=O)Nc1ccc(-c2csc3c(=O)cc(N4CCOCC4)oc23)cc1 [Compound 30]
2. CN(C)C(=O)c1cc2cnc(Nc3ccc(-c4csc5c(=O)cc(N6CCOCC6)oc45)cn3)nc2n1C1CCCC1 [Compound 8]
3. C=CS(=O)(=O)Nc1cc(-c2csc3c(=O)cc(N4CCOCC4)oc23)ccc1OC [Compound 45]
4. COc1ccc(C#Cc2csc3c(=O)cc(N4CCOCC4)oc23)cc1 [Compound 5-2]
5. COc1cc(NC(C)=O)cc(-c2csc3c(=O)cc(N4CCOCC4)oc23)c1 [Compound 33]
6. CN(C)C(=O)c1cc2cnc(Nc3cc(C(=O)O)cc(-c4csc5c(=O)cc(N6CCOCC6)oc45)c3)nc2n1C1CCCC1 [Compound 20]

1. 5.00 to 6.00
2. > 6.30
3. > 6.30
4. 6.00 to 6.30
5. > 6.30
6. 4.35 to 5.00

---

pIC50: −log10 of the molar value.
// values below are pIC50; system is BRD4-2 (Homo sapiens)

Solved cases below.
C=CS(=O)(=O)Nc1cc(-c2csc3c(=O)cc(N4CCOCC4)oc23)ccc1OC [Compound 45]    > 6.30
Cc1nn(-c2ccnc(Nc3ccc(-c4csc5c(=O)cc(N6CCNCC6)oc45)cc3)n2)cc1CN1CC(O)C1 [Compound 53]    < 4.35
O=C(O)c1cc2cnc(Nc3ccc(-c4csc5c(=O)cc(N6CCOCC6)oc45)cc3)nc2n1C1CCCC1 [Compound 23]    5.00 to 6.00

Continue with the next compound.
Any idea what pIC50 was measured for Cc1nn(-c2ccnc(Nc3ccc(-c4csc5c(=O)cc(N6CCOCC6)oc45)cc3)n2)cc1CN1CCC1 [Compound 54] ?
5.00 to 6.00

---

TEST_TARGET: BRD4-1 (Homo sapiens, UniProt O60885)
ASSAY_ENDPOINT: IC50

Solved cases below.
Cc1nn(-c2ccnc(Nc3ccc(-c4csc5c(=O)cc(N6CCOCC6)oc45)cc3)n2)cc1CN1CC(O)C1    > 45 µM
CN(C)C(=O)c1cc2cnc(N(c3cncc(-c4csc5c(=O)cc(N6CCOCC6)oc45)c3)c3ncc4cc(C(=O)N(C)C)n(C5CCCC5)c4n3)nc2n1C1CCCC1    1 to 10 µM

Continue with the next compound.
Any idea what IC50 was measured for "CN1CCN(c2cc(=O)c3scc(-c4cc5c(c(C(=O)NCc6cccnc6)c4)OCCO5)c3o2)CC1" ?
< 0.5 µM

---

TEST_TARGET: CDK6 cyclinD1 (Homo sapiens, UniProt Q00534)
Sequence (Q00534 whole entry): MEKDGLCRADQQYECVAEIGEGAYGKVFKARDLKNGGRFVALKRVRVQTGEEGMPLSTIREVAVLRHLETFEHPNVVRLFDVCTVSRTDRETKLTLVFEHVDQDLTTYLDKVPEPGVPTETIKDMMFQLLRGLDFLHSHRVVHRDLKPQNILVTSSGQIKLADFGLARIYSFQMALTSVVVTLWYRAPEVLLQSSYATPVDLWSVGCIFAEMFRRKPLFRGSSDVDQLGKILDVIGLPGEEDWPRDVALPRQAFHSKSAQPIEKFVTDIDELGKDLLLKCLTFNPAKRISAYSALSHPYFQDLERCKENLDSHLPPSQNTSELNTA
Sequence (P24385 whole entry partner): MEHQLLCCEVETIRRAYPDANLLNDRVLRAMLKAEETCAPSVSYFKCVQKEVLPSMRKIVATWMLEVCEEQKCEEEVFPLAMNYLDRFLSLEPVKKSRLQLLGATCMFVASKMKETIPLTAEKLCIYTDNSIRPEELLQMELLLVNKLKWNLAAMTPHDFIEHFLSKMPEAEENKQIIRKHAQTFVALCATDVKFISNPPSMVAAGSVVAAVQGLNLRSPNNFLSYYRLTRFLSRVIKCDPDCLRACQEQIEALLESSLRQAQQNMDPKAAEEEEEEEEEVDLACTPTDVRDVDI
RUN_DESCRIPTION: CDK6 cyclinD1 in vitro inhibition
Assay type: biochemical
ASSAY_ENDPOINT: IC50

Solved cases below.
COC(=O)c1cc(-c2csc3c(=O)cc(N4CCOCC4)oc23)ccc1Nc1ncc2cc(C(=O)N(C)C)n(C3CCCC3)c2n1    > 45000 nM
Cc1nn(-c2ccnc(Nc3ccc(-c4csc5c(=O)cc(N6CCN(C(=O)OC(C)(C)C)CC6)oc45)cc3)n2)cc1CN1CC(O)C1    500 to 1000 nM

Continue with the next compound.
Any idea what IC50 was measured for "Cc1nn(-c2ccnc(Nc3ccc(-c4csc5c(=O)cc(N6CCOCC6)oc45)cc3)n2)cc1CN1CC(O)C1" ?
< 500 nM

---

pIC50: −log10 of the molar value.
// values below are pIC50; system is BRD4-1 (Homo sapiens, UniProt O60885)

Please look at the items below and tell me pIC50 for each one, in order.
1. CN(C)C(=O)c1cc2cnc(Nc3csc4c(=O)cc(N5CCOCC5)oc34)nc2n1C1CCCC1
2. CN(C)C(=O)c1cc2cnc(Nc3ccc(-c4csc5c(=O)cc(N6CCNCC6)oc45)cc3)nc2n1C1CCCC1
3. CC(C)(C)OC(=O)Nc1cc2cnc(Nc3ccc(-c4csc5c(=O)cc(N6CCOCC6)oc45)cc3)nc2n1C1CCCC1
4. O=c1cc(N2CCOCC2)oc2c(C#Cc3ccsc3)csc12

["4.35 to 5.00", "> 6.30", "> 6.30", "4.35 to 5.00"]

Please look at the items below and tell me pIC50 for each one, in order.
1. CNC(=O)c1cc2cnc(Nc3ccc(-c4csc5c(=O)cc(N6CCOCC6)oc45)cc3)nc2n1C1CCCC1
2. C=CC(=O)Nc1cccc(-c2csc3c(=O)cc(N4CCNCC4)oc23)c1
3. O=C(C1=CCCC1)N1CCOc2ccc(-c3csc4c(=O)cc(N5CCOCC5)oc34)cc21
4. C=CC(=O)N1CCOc2ccc(-c3csc4c(=O)cc(N5CCOCC5)oc34)cc21

> 6.30
6.00 to 6.30
> 6.30
> 6.30

---

// values below are IC50; system is UniProt:P42336
Sequence (P42336 whole entry): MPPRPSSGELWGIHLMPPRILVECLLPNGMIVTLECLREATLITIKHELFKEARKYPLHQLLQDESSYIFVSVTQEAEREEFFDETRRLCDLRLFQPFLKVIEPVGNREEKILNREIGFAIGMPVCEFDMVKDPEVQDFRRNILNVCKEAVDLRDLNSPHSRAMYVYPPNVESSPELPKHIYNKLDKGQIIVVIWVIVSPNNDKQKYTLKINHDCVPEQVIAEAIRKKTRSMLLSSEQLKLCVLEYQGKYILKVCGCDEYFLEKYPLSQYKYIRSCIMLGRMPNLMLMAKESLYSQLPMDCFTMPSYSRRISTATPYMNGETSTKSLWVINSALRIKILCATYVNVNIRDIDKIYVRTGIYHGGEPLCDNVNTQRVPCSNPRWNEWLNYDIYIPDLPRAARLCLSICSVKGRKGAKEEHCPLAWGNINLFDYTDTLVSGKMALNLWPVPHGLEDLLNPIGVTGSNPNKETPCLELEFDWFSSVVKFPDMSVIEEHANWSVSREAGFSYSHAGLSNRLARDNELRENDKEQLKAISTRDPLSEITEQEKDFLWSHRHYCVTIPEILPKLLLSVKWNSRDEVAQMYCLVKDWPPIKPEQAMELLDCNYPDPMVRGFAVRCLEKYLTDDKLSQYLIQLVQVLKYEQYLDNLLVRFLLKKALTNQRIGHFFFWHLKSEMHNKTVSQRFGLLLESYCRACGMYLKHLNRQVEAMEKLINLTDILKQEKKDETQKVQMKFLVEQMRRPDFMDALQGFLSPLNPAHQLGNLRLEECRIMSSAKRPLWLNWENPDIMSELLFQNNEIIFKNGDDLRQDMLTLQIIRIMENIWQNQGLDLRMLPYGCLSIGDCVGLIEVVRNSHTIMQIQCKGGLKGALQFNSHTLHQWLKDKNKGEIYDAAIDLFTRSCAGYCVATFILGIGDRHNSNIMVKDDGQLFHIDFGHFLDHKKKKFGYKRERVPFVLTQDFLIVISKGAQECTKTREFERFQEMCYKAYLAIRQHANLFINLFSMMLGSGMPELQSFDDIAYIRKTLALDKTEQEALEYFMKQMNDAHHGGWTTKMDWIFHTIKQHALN
Sequence (P27986 whole entry partner): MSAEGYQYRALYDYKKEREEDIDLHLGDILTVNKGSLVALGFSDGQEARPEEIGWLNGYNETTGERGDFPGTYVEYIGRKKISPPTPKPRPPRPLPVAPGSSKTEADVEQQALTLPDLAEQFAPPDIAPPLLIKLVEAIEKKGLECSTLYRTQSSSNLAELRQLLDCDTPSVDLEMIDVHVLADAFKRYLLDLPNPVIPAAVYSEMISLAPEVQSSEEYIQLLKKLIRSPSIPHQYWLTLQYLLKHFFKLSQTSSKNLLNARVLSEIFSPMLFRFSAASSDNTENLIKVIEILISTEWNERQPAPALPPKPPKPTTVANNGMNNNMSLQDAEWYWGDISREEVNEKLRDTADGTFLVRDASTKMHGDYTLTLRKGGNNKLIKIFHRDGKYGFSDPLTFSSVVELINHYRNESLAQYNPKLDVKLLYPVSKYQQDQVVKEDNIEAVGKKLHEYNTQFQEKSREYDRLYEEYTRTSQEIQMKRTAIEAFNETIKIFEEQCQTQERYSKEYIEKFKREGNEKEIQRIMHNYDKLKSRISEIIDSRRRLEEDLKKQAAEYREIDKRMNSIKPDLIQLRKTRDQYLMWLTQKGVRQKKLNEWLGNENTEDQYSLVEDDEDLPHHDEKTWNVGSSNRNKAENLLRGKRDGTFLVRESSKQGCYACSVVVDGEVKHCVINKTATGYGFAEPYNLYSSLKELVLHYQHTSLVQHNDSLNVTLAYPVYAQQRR

Solved cases below.
C=CS(=O)(=O)N(c1cc(-c2csc3c(=O)cc(N4CCOCC4)oc23)ccc1OC)S(=O)(=O)C=C    < 0.5 µM
C=CS(=O)(=O)N(CCS(=O)(=O)N(c1cc(-c2csc3c(=O)cc(N4CCOCC4)oc23)ccc1OC)S(=O)(=O)C=C)c1cc(-c2csc3c(=O)cc(N4CCOCC4)oc23)ccc1OC    < 0.5 µM
CN(C)C(=O)c1cc2cnc(Nc3csc4c(=O)cc(N5CCOCC5)oc34)nc2n1C1CCCC1    1 to 10 µM

Please look at the items below and tell me IC50 for each one, in order.
1. Cc1nn(-c2ccnc(Nc3ccc(-c4csc5c(=O)cc(N6CCNCC6)oc45)cc3)n2)cc1CN1CC(O)C1
2. Cc1nn(-c2ccnc(Nc3ccc(-c4csc5c(=O)cc(N6CCN(C(=O)OC(C)(C)C)CC6)oc45)cc3)n2)cc1CN1CC(O)C1
3. O=c1cc(N2CCOCC2)oc2c(C#Cc3ccccc3)csc12
4. CN(C)C(=O)c1cc2cnc(Nc3ccc(-c4csc5c(=O)cc(N6CCOCC6)oc45)c(C(=O)O)c3)nc2n1C1CCCC1 [Compound 15]
5. CN1CCN(c2cc(=O)c3scc(-c4cc5c(c(C(=O)NCc6cccnc6)c4)OCCO5)c3o2)CC1
6. C/C=C(\C)C(=O)N1CCOc2ccc(-c3csc4c(=O)cc(N5CCOCC5)oc34)cc21

1. 1 to 10 µM
2. 1 to 10 µM
3. < 0.5 µM
4. < 0.5 µM
5. 10 to 45 µM
6. < 0.5 µM

Please look at the items below and tell me IC50 for each one, in order.
1. N#C/C(=C\C1CC1)C(=O)Nc1cccc(-c2csc3c(=O)cc(N4CCOCC4)oc23)c1
2. Cc1nn(-c2ccnc(Nc3ccc(-c4csc5c(=O)cc(N6CCOCC6)oc45)cc3)n2)cc1CN(C)C
3. CC(C)(C)OC(=O)Nc1cc2cnc(Nc3ccc(-c4csc5c(=O)cc(N6CCOCC6)oc45)cc3)nc2n1C1CCCC1

["< 0.5 µM", "0.5 to 1 µM", "< 0.5 µM"]

Please look at the items below and tell me IC50 for each one, in order.
1. CC(=O)c1c(C)c2cnc(Nc3ccc(-c4csc5c(=O)cc(N6CCOCC6)oc45)cc3)nc2n(C2CCCC2)c1=O
2. C=CS(=O)(=O)Nc1cc(-c2csc3c(=O)cc(N4CCOCC4)oc23)ccc1OC

1: < 0.5 µM; 2: < 0.5 µM
